The origin of these recorded values is paper PMC10397247.

Molecular target: T1, 4H347-AA
T1 chain: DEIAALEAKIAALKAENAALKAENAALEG
Test: two-hybrid library CCmax;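 also: natural log of median RNA to DNA barcode read ratio; higher means stronger binding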
Details: mean of both orientations
Examples of binders with documented interaction score follow.

BINDER	interaction score
DKIAALKAKNAALKAEIAALEAKNAALEG [4H3015-AA]	-1.96

Ask: Give its interaction score value. Item: DENAALKAKNAALEAEIAALKAEIAALKG [4H1930-AA]
Result: -1.32

Ask: Give its interaction score value. Item: DEIAALEAENAALKAKNAALKAEIAALEG [4H249-AA]
Result: 0.274

Ask: Give its interaction score value. Item: DKNAALEAKIAALKAKIAALKAKIAALKG [4H3438-AA]
Result: -0.916

Ask: Give its interaction score value. Item: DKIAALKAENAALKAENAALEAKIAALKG [4H2774-AA]
Result: -0.921

Ask: Give its interaction score value. Item: DENAALKAENAALKAKIAALEAKIAALEG [4H1765-AA]
Result: -1.81

Ask: Give its interaction score value. Item: DENAALKAEIAALKAKNAALEAEIAALKG [4H1650-AA]
Result: -2.36
